List of Average Particle Diameter (via ZETA Pals particle size analysis) values.
- protocol notes: Average particle diameter of peptide/DNA nanoparticles by ZetaPALS dynamic light scattering
- Format: physicochemical
- test conditions: luciferase, PEG
Ends that are not written are not given here.

As a guide, the following entries are already answered.
{"substance": "(H-Lys-His-Lys-His-His-Lys-His-Lys-His-His-Lys-His-Lys-His-His-Lys-His-Lys-His-Lys)4-Lys-Lys-Lys-His-His-His-His-Asn-His-His-His-His-OH (chain 1 H-KHKHHKHKHHKHKHHKHKHK; chain 2 KKKHHHHNHHHH-OH; also: four copies of chain 1 branched on core chain 2, attachment points not given here) [Peptide 2597, 9:11 Lys:His]", "measured value": "86.0 nm (luciferase, PEG)"}
{"substance": "(H-Lys-His-Lys-His-Lys-His-Lys-His-Lys-His-Lys-His-Lys-His-Lys-His-Lys-His-His-Lys)4-Lys-Lys-Lys-His-His-His-His-Asn-His-His-His-His-OH (chain 1 H-KHKHKHKHKHKHKHKHKHHK; chain 2 KKKHHHHNHHHH-OH; also: four copies of chain 1 branched on core chain 2, attachment points not given here) [Peptide 2596, 1:1 Lys:His]", "measured value": "77.4 nm (luciferase, PEG)"}

Could you now look at the following substance, please?
Value of measured Average Particle Diameter (via ZETA Pals particle size analysis) for the entry (H-Orn-His-Orn-His-His-Orn-His-His-Orn-His-His-Orn-His-His-Orn-His-His-Orn-His-Orn)4-Lys-Lys-Lys-His-His-His-His-Asn-His-His-His-His-OH [Peptide 2595] : 70.9 nm (luciferase, PEG)
